The entries below come with measured IL-8 [abs. corr.] values attached.
Biological target: T1, CD27 expressed on the cell surface (HT1080_CD27 cells) (human, UniProt P26842 20-260); note: test concentration or dose not given here
T1 sequence (looked up): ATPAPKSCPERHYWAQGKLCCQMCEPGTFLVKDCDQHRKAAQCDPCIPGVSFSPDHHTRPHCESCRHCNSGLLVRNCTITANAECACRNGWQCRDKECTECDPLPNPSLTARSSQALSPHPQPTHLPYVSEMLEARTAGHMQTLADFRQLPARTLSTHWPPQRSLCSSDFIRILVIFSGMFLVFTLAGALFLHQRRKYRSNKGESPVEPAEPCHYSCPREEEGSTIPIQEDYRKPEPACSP
Assay: cell-based or functional assay
Numbers only here, please. The scale is abs. corr..

binder="P018.S.03.A.G03 (antibody, V domains shown, V regions on human Ig constant parts; also called AB27_57) VH: QEHLEESGGGLVQPEGSLTLTCKASGFDFSSNYYMSWVRQAPGTGLEWIACIDSGSSGSTWYASWVKGRFTISKTSSTTVTLQMTSLTDADTAAYFCVRDDVGSSYEYYFSLWGPGTLVTVSS VL: DVVMTQTPASVSEPVGGTVTIKCQASQSIGSFLGWYQQKPGQPPKLLIYQASKLASGVPSRFKGSGSGTEYTLTISDLESADAAAYYCQTYFGSDSYVFGGGTEVVVK" numeric_value=0.546

Let us examine a further case.
For reference, reported IL-8 [abs. corr.] for P018.S.07.A.H06 (antibody, V domains shown, V regions on human Ig constant parts; also called AB27_134) VH: QSLEESGGDLVQPGASLTLTCKASGIDLSSYWMCWVRQTPGKGLEWIGCIATYSSVTYYANWAKGRFTISKPSSTTVTLQMTSLTAADTATYFCARDPYSFNGSLFTLWGPGTLVTVSS VL: ALVMTQTASPVSAAVGGTVTIDCQASQNIGTYLAWYQQKPGQPPKLLIYTASSLASGVPSRFKGSGSGTQFTLTISDLESDDAATYYCAGYKNYNNDDNGFGGGTEVVVK stands at 0.422
